system: CD8+ T cells; format: in vivo, B6 mice; conditions: mouse, in vivo
# Number of Spots per 300,000 cells, Medium listing for each entry below

                                 seq_string                             result
0  NLLRLTGWFFRKFAPGNYPAL (SEQ ID NO:892) (Hybrid antigen)      0 ± 0 Spots per 300,000 cells
1  NLLRLTGWFFRKIAYFYPEL (SEQ ID NO:913) (Hybrid antigen)      0 ± 0 Spots per 300,000 cells
2  NLLRLTGWFFRKSSWDFITV (SEQ ID NO:911) (Hybrid antigen)  0.7 ± 0.8 Spots per 300,000 cells
3  NLLRLTGWFFRKRTFSFQLI (SEQ ID NO:912) (Hybrid antigen)  0.3 ± 0.4 Spots per 300,000 cells

Input: Which Number of Spots per 300,000 cells, Medium reading was recorded for the sequence NLLRLTGWFFRKDAPIYTNV (SEQ ID NO:910) (Hybrid antigen) ?
Output: 0.7 ± 0.4 Spots per 300,000 cells

====

test system: CD8+ T cells; format: in vivo, B6 mice; conditions: mouse, in vivo
MEASURED_ENDPOINT: Number of Spots per 300,000 cells, Splenocytes

In the examples that follow, each entry is paired with its recorded Number of Spots per 300,000 cells, Splenocytes.
>>> print(df.to_string())
                                 seq_string                             result
0  NLLRLTGWFFRKRTFSFQLI (SEQ ID NO:912) (Hybrid antigen)      0 ± 0 Spots per 300,000 cells
1  NLLRLTGWFFRKDAPIYTNV (SEQ ID NO:910) (Hybrid antigen)      0 ± 0 Spots per 300,000 cells
2  NLLRLTGWFFRKSSWDFITV (SEQ ID NO:911) (Hybrid antigen)  0.7 ± 0.4 Spots per 300,000 cells

Input: Requested read-out: Number of Spots per 300,000 cells, Splenocytes. Entry: NLLRLTGWFFRKIAYFYPEL (SEQ ID NO:913) (Hybrid antigen)
Output: 0 ± 0 Spots per 300,000 cells

====

target: recombinant human or murine heat shock protein 70 (hsp70); assay: Scatchard analysis of labeled reference hybrid antigen binding to hsp70; conditions: tritiated label; 39% PBS, 20 mM THAM pH 8, 37 mM NaCl, 5 mM MgCl2, 1 mM ADP
MEASURED_ENDPOINT: Kd (µM)
Record the value in µM, omitting the unit from your answer.

Input: Endpoint output: Kd of ALFDIESKVGSGHWDFAWPW . Value?
Output: 22.6

====

biological target: recombinant human or murine heat shock protein 70 (hsp70); experiment: Scatchard analysis of labeled reference hybrid antigen binding to hsp70; settings: fluoresceinated label; 39% PBS, 20 mM THAM pH 8, 37 mM NaCl, 5 mM MgCl2, 1 mM ADP
MEASURED_ENDPOINT: Kd
Report field: quantity (unit follows the number).

Input: May I ask what Kd has been recorded for ALFDIESKVGSGHWDFAWPW ?
Output: 10.8 µM

====

biological target: recombinant human or murine heat shock protein 70 (hsp70); experiment: hsp70 binding inhibition assay (Hill plots) relative to labeled reference hybrid antigen; conditions: read-out: Kd for hsp70 binding, antigenic domains alone
MEASURED_ENDPOINT: Kd (µM)
Please reply with the bare figure in µM and do not write the unit itself.

Input: Given the sequence RGYVYQGL , what is its reported Kd?
Output: 82
